// provenance: the supplement of paper PMC3334620

Target: Msn1 (UniProt P22148)
Sequence: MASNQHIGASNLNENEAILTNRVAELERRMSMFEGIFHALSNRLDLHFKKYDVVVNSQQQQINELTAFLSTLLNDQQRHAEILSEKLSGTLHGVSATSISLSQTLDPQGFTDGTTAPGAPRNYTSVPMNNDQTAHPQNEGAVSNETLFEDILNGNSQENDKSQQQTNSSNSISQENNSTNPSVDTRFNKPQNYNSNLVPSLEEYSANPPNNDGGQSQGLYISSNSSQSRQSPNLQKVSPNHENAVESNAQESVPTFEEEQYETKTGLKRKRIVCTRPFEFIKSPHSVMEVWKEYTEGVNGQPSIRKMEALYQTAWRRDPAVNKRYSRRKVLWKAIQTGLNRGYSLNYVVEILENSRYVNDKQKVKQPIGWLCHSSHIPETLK
Experiment: PBM E-score (8-mer binding enrichment) (E-score (-0.5 to 0.5)); higher = stronger / more preferred TF binding
Settings: protein concentration: 200 nM; construct: GST-full length
Whole data set: some 33,000 sequences, median “E-score (-0.5 to 0.5)” near -0.013, cut for the highest 2% near 0.3. The entries come from a sample that favours the highest values as a whole.
Given measured PBM E-score, output label 1 if it is greater than or equal to 0.1 and label 0 if not.

primary.sequence | label.value
AAAATTAA | label 1
AAATTAAA | label 1
AAATTAAT | label 1
CAATTTCC | label 0
TACATGTA | label 1
ATCGGACG | label 0
CACATGTG | label 0
GACATGTC | label 1
TTATTAAA | label 1
CTCGGACC | label 1
CACATGTA | label 1
CTTAGCAC | label 0
ACGACATC | label 1
ATGCGTGA | label 1
TACATACA | label 1
AACATGTA | label 1
GTGATTGA | label 1
AACATACC | label 1
CACATACC | label 0
ATCGGACA | label 1
CCCTTCAA | label 0
GCGACATA | label 1
GAAATTAA | label 1
CCGATTTA | label 1
ATATTAAA | label 1
CTCGGACA | label 1
GACATGGC | label 1
GACATACA | label 1

* * *

Target: Msn1 (UniProt P22148)
Sequence: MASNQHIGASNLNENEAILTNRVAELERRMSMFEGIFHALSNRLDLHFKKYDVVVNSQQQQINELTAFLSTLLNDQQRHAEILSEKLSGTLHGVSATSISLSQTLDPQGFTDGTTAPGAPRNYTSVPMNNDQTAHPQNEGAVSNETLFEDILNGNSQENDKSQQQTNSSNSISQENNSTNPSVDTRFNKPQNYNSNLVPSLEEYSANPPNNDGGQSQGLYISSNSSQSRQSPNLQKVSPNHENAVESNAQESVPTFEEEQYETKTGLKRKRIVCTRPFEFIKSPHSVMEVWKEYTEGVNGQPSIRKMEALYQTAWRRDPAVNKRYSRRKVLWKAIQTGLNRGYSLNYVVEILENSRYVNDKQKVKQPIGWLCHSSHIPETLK
Assay: PBM E-score (8-mer binding enrichment) (E-score (-0.5 to 0.5)); higher = stronger / more preferred TF binding
Settings: protein concentration: 200 nM; construct: GST-full length
In all, about 33,000 sequences were measured (“E-score (-0.5 to 0.5)”: median about -0.013, highest 2% from about 0.3 on). This excerpt belongs to a sample that is enriched for the highest values.
Given measured PBM E-score, output Yes if it is greater than or equal to 0.02 and No if not.

primary.sequence | experimental.target | label.value
GAAGGATA | Msn1 (UniProt P22148) | No
TACGTCCA | Msn1 (UniProt P22148) | Yes
GAAGGACA | Msn1 (UniProt P22148) | Yes
AAGTGTCC | Msn1 (UniProt P22148) | Yes
GCCTATAA | Msn1 (UniProt P22148) | Yes
CCAATAGC | Msn1 (UniProt P22148) | No
TAAGGAGA | Msn1 (UniProt P22148) | No
TATGTCAA | Msn1 (UniProt P22148) | Yes
TATGTCGA | Msn1 (UniProt P22148) | Yes
GGCCAAAA | Msn1 (UniProt P22148) | No
CAGCACTG | Msn1 (UniProt P22148) | No
AAAGGACG | Msn1 (UniProt P22148) | Yes
CAGTGTCC | Msn1 (UniProt P22148) | Yes
CTCGAACC | Msn1 (UniProt P22148) | No
AAAAATGG | Msn1 (UniProt P22148) | Yes
CGTATTGA | Msn1 (UniProt P22148) | No
GCAGAGCC | Msn1 (UniProt P22148) | No
CAAAATGG | Msn1 (UniProt P22148) | Yes
AAGTGTCT | Msn1 (UniProt P22148) | Yes
CATGTCAC | Msn1 (UniProt P22148) | Yes
AAGCATTA | Msn1 (UniProt P22148) | No
ATAGGACC | Msn1 (UniProt P22148) | No
CCTTTTAC | Msn1 (UniProt P22148) | Yes
ATAGGACG | Msn1 (UniProt P22148) | Yes
CAAGGACC | Msn1 (UniProt P22148) | Yes
AAAAATGA | Msn1 (UniProt P22148) | Yes
CAAGGACG | Msn1 (UniProt P22148) | Yes
ACGGTCGG | Msn1 (UniProt P22148) | No
ACTTGCCT | Msn1 (UniProt P22148) | No
ATCCATTA | Msn1 (UniProt P22148) | No
AGCTGGAG | Msn1 (UniProt P22148) | No
AAGCTGGT | Msn1 (UniProt P22148) | No

* * *

Biological target: Msn1 (UniProt P22148)
Sequence: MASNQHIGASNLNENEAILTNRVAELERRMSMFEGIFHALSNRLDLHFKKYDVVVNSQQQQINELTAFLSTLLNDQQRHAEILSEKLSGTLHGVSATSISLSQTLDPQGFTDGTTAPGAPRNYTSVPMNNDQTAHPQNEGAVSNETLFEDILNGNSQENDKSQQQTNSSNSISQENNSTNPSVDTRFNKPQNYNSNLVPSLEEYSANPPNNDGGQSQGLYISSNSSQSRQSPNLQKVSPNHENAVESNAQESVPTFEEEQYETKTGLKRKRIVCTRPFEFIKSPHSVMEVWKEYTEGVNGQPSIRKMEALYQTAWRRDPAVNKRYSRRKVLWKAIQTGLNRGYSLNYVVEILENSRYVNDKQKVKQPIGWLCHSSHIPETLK
Test: PBM E-score (8-mer binding enrichment) (E-score (-0.5 to 0.5)); higher = stronger / more preferred TF binding
Details: protein concentration: 200 nM; construct: GST-full length
The full ranking holds about 33,000 sequences; the median of “E-score (-0.5 to 0.5)” is about -0.013, and the highest 2% start at about 0.3. What follows is part of a selection rich in the highest values, with near analogues and random picks from the rest.

primary.sequence | PBM E-score
GCCCATGA | -0.081
ACTCCTCG | -0.00289
CCAGCGCG | -0.158
CCGTGAAC | 0.0411
CTGTGTCC | 0.439
ATGTCCAA | 0.485
CTGTGTAC | 0.197
CGGTGTCC | 0.304
ATGTGTCG | 0.194

* * *

Molecular target: Msn1 (UniProt P22148)
Sequence: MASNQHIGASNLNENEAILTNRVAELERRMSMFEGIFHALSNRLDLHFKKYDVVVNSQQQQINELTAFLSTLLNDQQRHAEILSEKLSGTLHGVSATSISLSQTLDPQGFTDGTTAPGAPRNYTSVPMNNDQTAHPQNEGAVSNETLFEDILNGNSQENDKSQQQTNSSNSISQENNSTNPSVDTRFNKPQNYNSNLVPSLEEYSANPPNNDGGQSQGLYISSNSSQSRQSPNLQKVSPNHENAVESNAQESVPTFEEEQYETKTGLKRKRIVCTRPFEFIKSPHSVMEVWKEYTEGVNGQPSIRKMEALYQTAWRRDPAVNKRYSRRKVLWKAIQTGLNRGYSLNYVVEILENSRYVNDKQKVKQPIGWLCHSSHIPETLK
Assay: PBM E-score (8-mer binding enrichment) (E-score (-0.5 to 0.5)); higher = stronger / more preferred TF binding
Details: protein concentration: 200 nM; construct: GST-full length
The full ranking holds about 33,000 sequences; the median of “E-score (-0.5 to 0.5)” is about -0.013, and the highest 2% start at about 0.3. Only a selection was taken, and the highest values are over-represented in it overall.
Given measured PBM E-score, output criterion met if it is greater than or equal to 0.07 and criterion not met if not.

primary.sequence | experimental.target | label.value
CTCTGTCA | Msn1 (UniProt P22148) | criterion not met
ACGTCCTA | Msn1 (UniProt P22148) | criterion met
AGACATAT | Msn1 (UniProt P22148) | criterion met
GTGTCAAA | Msn1 (UniProt P22148) | criterion met
ACACATAG | Msn1 (UniProt P22148) | criterion not met
ATCTGTCG | Msn1 (UniProt P22148) | criterion met
ACGTCCTG | Msn1 (UniProt P22148) | criterion not met
CAACGACG | Msn1 (UniProt P22148) | criterion not met
ACAAACTG | Msn1 (UniProt P22148) | criterion met
ATGTCATG | Msn1 (UniProt P22148) | criterion met
ATGTCAGG | Msn1 (UniProt P22148) | criterion met
ATCAGACC | Msn1 (UniProt P22148) | criterion not met
CGGCCCAG | Msn1 (UniProt P22148) | criterion not met
ACAGGACA | Msn1 (UniProt P22148) | criterion met
GAAGGTGA | Msn1 (UniProt P22148) | criterion not met
CAACGACA | Msn1 (UniProt P22148) | criterion met
CTGCTCAA | Msn1 (UniProt P22148) | criterion not met
GCGGAGCC | Msn1 (UniProt P22148) | criterion not met
CTCTGTCC | Msn1 (UniProt P22148) | criterion met
GTCGGGTA | Msn1 (UniProt P22148) | criterion met
AGACATAG | Msn1 (UniProt P22148) | criterion met
ATTGTCAG | Msn1 (UniProt P22148) | criterion met
CCAGGACG | Msn1 (UniProt P22148) | criterion met
CGACATAG | Msn1 (UniProt P22148) | criterion met
CCACGACA | Msn1 (UniProt P22148) | criterion met
TCAGGAAA | Msn1 (UniProt P22148) | criterion met
GCAGGACC | Msn1 (UniProt P22148) | criterion not met
ATGCAGTC | Msn1 (UniProt P22148) | criterion not met
CTGTCATC | Msn1 (UniProt P22148) | criterion met
CTACAAAA | Msn1 (UniProt P22148) | criterion met
ATAGGCCA | Msn1 (UniProt P22148) | criterion not met
GTGTCATA | Msn1 (UniProt P22148) | criterion met
CCAGGACA | Msn1 (UniProt P22148) | criterion met
TAGGACAA | Msn1 (UniProt P22148) | criterion met
CTGTCATA | Msn1 (UniProt P22148) | criterion met
ATACGACA | Msn1 (UniProt P22148) | criterion met
CAGGCCGC | Msn1 (UniProt P22148) | criterion not met
CTTGTCTC | Msn1 (UniProt P22148) | criterion met
CGCCTCTA | Msn1 (UniProt P22148) | criterion not met
ACATTCTG | Msn1 (UniProt P22148) | criterion met
GACATTGC | Msn1 (UniProt P22148) | criterion met
AAACATAT | Msn1 (UniProt P22148) | criterion met
ATTGTCTA | Msn1 (UniProt P22148) | criterion met
TCAGGACA | Msn1 (UniProt P22148) | criterion met
GTCCAAAC | Msn1 (UniProt P22148) | criterion met
CGATTTGA | Msn1 (UniProt P22148) | criterion not met
GCACGACA | Msn1 (UniProt P22148) | criterion not met
ATAGGTTG | Msn1 (UniProt P22148) | criterion not met
CGCCAGGC | Msn1 (UniProt P22148) | criterion not met
AAGCCAGA | Msn1 (UniProt P22148) | criterion not met
ATTGTTTG | Msn1 (UniProt P22148) | criterion met
GTACAAAC | Msn1 (UniProt P22148) | criterion met
GAGTTCCC | Msn1 (UniProt P22148) | criterion not met
AAGGAGAT | Msn1 (UniProt P22148) | criterion not met
ATACCTAG | Msn1 (UniProt P22148) | criterion not met
ACAGGACG | Msn1 (UniProt P22148) | criterion not met
ATTGTCTG | Msn1 (UniProt P22148) | criterion met
CTAATGTC | Msn1 (UniProt P22148) | criterion met
ATGCTGTC | Msn1 (UniProt P22148) | criterion not met
AGACACAT | Msn1 (UniProt P22148) | criterion met
AGACATAC | Msn1 (UniProt P22148) | criterion met
AAGCGGAC | Msn1 (UniProt P22148) | criterion not met
CTACCAAA | Msn1 (UniProt P22148) | criterion not met
TCACGACA | Msn1 (UniProt P22148) | criterion met
CTCTGTAC | Msn1 (UniProt P22148) | criterion not met
TATATGCA | Msn1 (UniProt P22148) | criterion met
CCTGCTAC | Msn1 (UniProt P22148) | criterion not met
ATACATAC | Msn1 (UniProt P22148) | criterion not met
CCGTCCTA | Msn1 (UniProt P22148) | criterion not met
AGTGTCTA | Msn1 (UniProt P22148) | criterion met
ATGGAGCG | Msn1 (UniProt P22148) | criterion not met
CTAATGAC | Msn1 (UniProt P22148) | criterion not met
ACACGACA | Msn1 (UniProt P22148) | criterion met
CACATTGA | Msn1 (UniProt P22148) | criterion not met
